B1: tRNA (parent)
chain: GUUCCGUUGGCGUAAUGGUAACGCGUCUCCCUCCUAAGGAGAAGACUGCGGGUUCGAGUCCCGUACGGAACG

Variants of: B1
method_description: yeast fitness relative to wild type (ratio to wild type); higher = fitter; tRNA-Arg(CCU), competitive growth, 37 C, YPD
Fewer inactive variants are shown than the library holds.
yeast fitness below 0.7 gives FALSE; yeast fitness at or above it gives TRUE.

See these solved cases before continuing.
| mutation_code | class_name |
| --- | --- |
| G41A A43G C60U | FALSE |
| U7A U19G G58A | FALSE |
| G17A C22A U35C A45C C46U | FALSE |
| G12A C33U A36C | FALSE |

Q) Could you tell me if the measured yeast fitness of C22U A45C G50A G67C A69C reaches 0.7 or more?
A) FALSE

Q) Could you please find out whether U7G G12A G25A C33G G58A G67A has yeast fitness that meets 0.7 or exceeds it?
A) FALSE

Q) hey, is yeast fitness for this one >= 0.7? A14U A15G
A) TRUE

Q) Exam item: decide whether the reported yeast fitness for G10A C27A is at least 0.7.
A) TRUE

Q) Reported yeast fitness at or above 0.7? C11G A14U C24A C61A
A) FALSE

Q) Exam item: decide whether the reported yeast fitness for C29G G44A G58C is at least 0.7.
A) FALSE

Q) Reported yeast fitness reaches at least 0.7 for C5G G10A ?
A) TRUE
